Biological target: human FAAH (Homo sapiens, UniProt O00519)
Construct: host or cells: COS-7 cells, transient transfection (FuGENE 6); 13,000 g membrane fraction solubilised in 1% Triton X-100
Sequence (O00519 1-579): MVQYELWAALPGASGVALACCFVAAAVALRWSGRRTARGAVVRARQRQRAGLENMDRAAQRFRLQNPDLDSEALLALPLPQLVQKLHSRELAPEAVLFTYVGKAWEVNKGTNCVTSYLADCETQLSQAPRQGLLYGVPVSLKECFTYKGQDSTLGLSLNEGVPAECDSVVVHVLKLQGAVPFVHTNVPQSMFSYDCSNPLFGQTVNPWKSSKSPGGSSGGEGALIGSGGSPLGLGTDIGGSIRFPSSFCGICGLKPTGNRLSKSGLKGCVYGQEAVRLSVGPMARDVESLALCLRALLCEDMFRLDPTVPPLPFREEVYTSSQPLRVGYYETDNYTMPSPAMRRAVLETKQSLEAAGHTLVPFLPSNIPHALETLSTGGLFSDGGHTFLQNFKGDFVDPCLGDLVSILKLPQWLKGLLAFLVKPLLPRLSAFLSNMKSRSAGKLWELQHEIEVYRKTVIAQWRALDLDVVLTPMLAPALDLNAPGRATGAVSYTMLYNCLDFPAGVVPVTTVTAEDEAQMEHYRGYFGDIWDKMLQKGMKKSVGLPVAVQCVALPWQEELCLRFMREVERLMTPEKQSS
Assay: Human FAAH biochemical inhibition assay (AMC arachidonoyl amide fluorescence)
Settings: class given in each Example, read-out: Activity (Ki, inhibition of human FAAH)
Entries and their Ki

Use the examples below as a reference point.
**Q:** Retrieve Ki measured for OB(O)c1ccc(COc2ccc(B(O)O)cc2)cc1 and print it.
**A:** 100 to 1000 nM

**Q:** Return reported Ki. Input compound: OB(O)c1ccc(-c2nnc(-c3cccc(C(F)(F)F)c3)o2)cc1
**A:** ≤ 10 nM

**Q:** Write down Ki measured for item OB(O)c1ccc(-c2nnc(Cc3ccsc3)o2)cc1
**A:** ≤ 10 nM

**Q:** Fill in Ki for record O=C(CCc1nc2ccc(B(O)O)cc2o1)N1CCCCC1
**A:** 10 to 100 nM

**Q:** Given CC(C)c1ccc(CN2CCC(c3ccc(B(O)O)cc3)CC2)cc1 , respond with its Ki.
**A:** 10 to 100 nM

More entries:
**Q:** Check the records and state Ki for O=C1CCCN1CCc1nnc(-c2ccc(B(O)O)cc2)o1
**A:** 100 to 1000 nM

**Q:** Note Ki for the compound shown: OB(O)c1ccc2nc(CCc3ccccc3)oc2c1
**A:** ≤ 10 nM

**Q:** Fill in reported Ki for this entry: OB(O)c1ccc2nc(OCc3ccccc3)ccc2c1
**A:** ≤ 10 nM

**Q:** Specify Ki for Cc1cccc(Cn2cc(-c3ccc(B(O)O)cc3)nn2)c1 and stop.
**A:** ≤ 10 nM
